System: TK-10 renal
Assay: NCI tumour cell line growth inhibition, 48 h

compound: Oc1ccc(-c2[nH]c3ccccc3c2-c2nc3ccccc3o2)cc1
assay-system: TK-10 renal
GI50: 5.49 µM

compound: COC(=O)c1ccc2c(c1)C(=O)c1c-2n(CCCCl)c(=O)c2cc(OC)c(OC)cc12
assay-system: TK-10 renal
GI50: > 100 µM

compound: COC(=O)C1=Nc2ccc(F)cc2/C1=C/c1sc(=S)[nH]c1O
assay-system: TK-10 renal
GI50: 0.848 µM

compound: CCc1c(C#N)c(SC(C(N)=O)c2ccccc2)nc(N2CCC(N)CC2)c1C#N (configuration not stated)
assay-system: TK-10 renal
GI50: 15.3 µM

compound: COc1cc(OC)c(/C=C/C(=O)c2c(N)cc(OC)cc2OC)c(OC)c1
assay-system: TK-10 renal
GI50: 6.64 µM

compound: O=C(CN(/C=C/C(=O)C(F)(F)F)c1ccccc1)c1ccc(F)cc1
assay-system: TK-10 renal
GI50: 33 µM

compound: O=C(Nc1nc2c(s1)CCc1c-2c(Br)n(Cc2ccccc2)c1Br)c1ccccc1
assay-system: TK-10 renal
GI50: 2.98 µM

====

Tested on: UACC-62 melanoma
Assay: NCI tumour cell line growth inhibition, 48 h
// values below are reported TGI
endpoint-name: TGI

compound: CCc1ccc(C2=NN(c3ccc(S(C)(=O)=O)cc3)C(=O)CC2)cc1
endpoint-name: TGI
value-measured: > 100 µM
--
compound: CCOc1ccc(/C=C2/C(=O)N=C(N)N=C2N)cc1OCC
endpoint-name: TGI
value-measured: > 100 µM
--
compound: CC(C)(CC1(C)NC(=O)NC1=O)OCc1ccccc1 (stereo unspecified)
endpoint-name: TGI
value-measured: > 100 µM
--
compound: CO/C(=N\N=C(/c1ccccc1)C(F)(F)F)c1ccncc1
endpoint-name: TGI
value-measured: > 100 µM
--
compound: COc1cc2c(cc1OC)C(SC)C(=O)N(Cc1cccc(OC)c1OC)CC2 (stereo unspecified)
endpoint-name: TGI
value-measured: 30.2 µM
--
compound: Cc1csc(CCC(N)C(=O)O)n1 (stereo unspecified)
endpoint-name: TGI
value-measured: > 100 µM
--
compound: COc1ccc2c(C(=O)c3c(C)n(CCN4CCOCC4)c4ccccc34)cccc2c1
endpoint-name: TGI
value-measured: > 100 µM
--
compound: NC(N)=N/N=C/c1c(-c2ccc(Cl)cc2)nc2sc(Cl)cn12
endpoint-name: TGI
value-measured: 3.25 µM
--
compound: Nc1ncnc2c1ncn2CCOC(c1ccccc1)P(=O)(O)O (stereo unspecified)
endpoint-name: TGI
value-measured: > 100 µM
--
compound: O=C1C2C(C(=O)N1CC[Se][Se]CCN1C(=O)C3C(C1=O)[C@H]1C=C[C@@H]3C1)[C@H]1C=C[C@@H]2C1 (stereo partly specified)
endpoint-name: TGI
value-measured: 3.24 µM
--
compound: CCN(CC)C(=S)S
endpoint-name: TGI
value-measured: 12.3 µM

====

Test system: CCRF-CEM leukemia
Experiment: NCI tumour cell line growth inhibition, 48 h
// values below are reported TGI

compound: Nc1c(C(=O)Nc2ccccn2)sc2nc3c(cc12)CCCCCC3
TGI: > 50 µM

compound: Cn1c(=O)c(C(=O)NC23CC4CC(CC(C4)C2)C3)c(O)c2ccccc21
TGI: > 100 µM

compound: c1ccc2c(c1)[O][Sn][O]2
TGI: > 150 µg/mL

compound: CCOc1ccc(/C=C2/C(=O)N=C(N)N=C2N)cc1OCC
TGI: > 100 µM

compound: CN(C)CCNC(=O)c1cccc2cc3ccc4ccccc4c3nc12
TGI: 0.267 µM

compound: Nc1n[nH]c2ccc([C@@H]3Nc4c(F)cc5[nH]ncc5c4[C@H]4C5CCC(C5)[C@@H]34)cc12 (stereo partly specified)
TGI: > 52.1 µM

compound: CC1(C)CC(O)CC(C)(C)N1.CC1(C)CC(O)CC(C)(C)N1.CC1(C)CC(O)CC(C)(C)N1.CC1(C)CC(O)CC(C)(C)N1.Cl.[Ti]
TGI: > 100 µM

compound: O=C(Nc1cccc(-n2cc(-c3ccncc3)c(-c3ccc(O)c(Cl)c3)n2)c1)Nc1ccc(Cl)c(Cl)c1
TGI: 5.73 µM

compound: Cc1ccc(C(=O)N2C/C(=C/c3ccccc3)C(=O)/C(=C/c3ccccc3)C2)cc1
TGI: > 100 µM

compound: CC1CCN(c2cc(-c3cc4ccccc4o3)oc(=O)c2C#N)CC1
TGI: > 100 µM

compound: CC(=O)OC1CC[C@@]2(C)C(=CC[C@@H]3[C@@H]2CC[C@]2(C)C(OC(C)=O)[C@H](n4ccnc4)C[C@@H]32)C1 (stereo partly specified)
TGI: 37.1 µM

compound: CCN(CC)CCS(=O)(=O)CCNc1ccnc2cc(Cl)ccc12
TGI: > 38.6 µM

compound: CCN(CC)Cc1ccc(Nc2c3ccccc3nc3ccccc23)cc1
TGI: 8.28 µM

compound: C=C(C)[C@@H]1CC[C@]2(C(=O)n3ccnc3)CC[C@]3(C)[C@H](CC[C@@H]4[C@@]5(C)CCCNC(C)(C)[C@@H]5CC[C@]43C)[C@@H]12
TGI: 4.48 µM

compound: Cc1cc2c3c(c1)CCCN3CCC2
TGI: > 10 µM

compound: CON(C)C(=O)C(C)NC(=O)OC(C)(C)C (stereo unspecified)
TGI: > 100 µM

compound: Cc1csc(CCC(N)C(=O)O)n1 (stereo unspecified)
TGI: > 100 µM

compound: COc1ccc(C(=O)/C=C/c2ccc(OCc3ccccc3)c(OC)c2)cc1OC
TGI: 71.2 µM

compound: COCCOCCOCCC(=O)NC1CC2CCC1(C)C2(C)C (stereo unspecified)
TGI: > 100 µM

compound: CC1=NN(c2nc(N)nc(/C=C\c3ccccc3)n2)C(C)(C)C1
TGI: 34.7 µM

compound: Nc1ncnc2c1N=C(c1ccccc1)CC(c1ccccc1)N2 (stereo unspecified)
TGI: > 100 µM

====

// values below are reported TGI
Test system: RPMI-8226 leukemia
Assay: NCI tumour cell line growth inhibition, 48 h
endpoint-name: TGI

mol-smiles: CO[C@]12C[C@@H](CNC(=O)c3cc(Br)c[nH]3)O[C@H]1NC(=O)N2
endpoint-name: TGI
value-measured: > 100 µM
//
mol-smiles: Cc1cc(OC(=O)c2c(C)cc(OC(=O)c3c(C)cc(O)cc3O)cc2O)cc(O)c1C(=O)O
endpoint-name: TGI
value-measured: > 100 µM
//
mol-smiles: Cn1c(=O)c(C(=O)NC23CC4CC(CC(C4)C2)C3)c(O)c2ccccc21
endpoint-name: TGI
value-measured: > 100 µM
//
mol-smiles: Cc1cc(/N=C/c2ccc(Cl)cc2)n(-c2ccccc2)n1
endpoint-name: TGI
value-measured: > 100 µM
//
mol-smiles: CC(=O)Oc1ccc2cc(Oc3ccccc3)c(=O)oc2c1
endpoint-name: TGI
value-measured: > 100 µM
//
mol-smiles: O=C1c2ccoc2C(=O)c2oc(=O)ccc21
endpoint-name: TGI
value-measured: 22.2 µM

====

// values below are reported TGI
Tested on: CCRF-CEM leukemia
Assay: NCI tumour cell line growth inhibition, 48 h
endpoint-name: TGI (µM)

compound: COc1cccc(N2C(=O)C3CC(CC(C)(C)C)c4c([nH]c5ccccc45)C3C2=O)c1 (stereo not given)
relation-symbol: >
value-measured: 10
//
compound: COc1cc(OC)c(/C=C/C(=O)c2c(N)cc(OC)cc2OC)c(OC)c1
relation-symbol: >
value-measured: 100
//
compound: O=C(/C=C\c1ccc(/C=C/C(=O)Nc2cccc(C3=NCCCN3)c2)cc1)Nc1cccc(C2=NCCCN2)c1
relation-symbol: >
value-measured: 100
//
compound: COc1ncc2cc1NS(=O)(=O)c1cccc(c1)C(=O)NCC1=CC=C(S1)c1ncnc3c1SC2=C3C
relation-symbol: =
value-measured: 1.16
//
compound: CC/C(=C(/c1ccc(/C=C/C(=O)O)cc1)c1ccc2[nH]ncc2c1)c1ccc(F)cc1Cl
relation-symbol: =
value-measured: 30.7

====

// values below are reported TGI
System: M19-MEL melanoma
Test: NCI tumour cell line growth inhibition, 48 h

compound: C/C(CC(=O)Nc1cccc(Cl)c1C)=N\N=C(N)N
TGI: > 100 µM
//
compound: O=c1c2ccccc2n2cnc3ccc(NCCNCCO)c1c32
TGI: 12.9 µM
//
compound: O=S(=O)(Cc1ccccc1)SCc1ccccc1
TGI: 53.9 µM
//
compound: Cc1csc(CCC(N)C(=O)O)n1 (configuration not stated)
TGI: > 100 µM
//
compound: O=c1c2cccc3cccc(c4n1CCCN=4)c32
TGI: > 100 µM
//
compound: CN(C)CCNC(=O)c1cccc2cc3ccc4ccccc4c3nc12
TGI: 0.235 µM
//
compound: CCN(CC)C(=S)S
TGI: > 37.5 µM
//
compound: O=C(NN1C(=O)C(Cl)C1c1c(O)ccc2ccccc12)c1ccccc1O (configuration not stated)
TGI: > 100 µM
//
compound: O=C(O)C1=C(C(=O)O)Oc2ccccc2O1
TGI: > 100 µM
//
compound: CSc1nc(C)cc(=O)n1C1OC(COC(C)=O)C(OC(C)=O)C(OC(C)=O)C1OC(C)=O (configuration not stated)
TGI: > 100 µM
//
compound: COC(=O)c1cc2ccccc2c2nc3ccccc3c(Cl)c12
TGI: > 100 µM
//
compound: Nc1c(-c2nc3ccccc3s2)[n+]([O-])c2ccccc2[n+]1[O-]
TGI: 84.2 µM
